Would you mind telling me the reported pEC50 of each entry?
Test system: MV4;11 cells
experiment_summary: Cell viability by CellTiterGlo
Assay type: cell-based
run_conditions: Homo sapiens, MV4-11; Table S6; NE = not efficient; read-out: MV4-11 EC50 (viability)
Bear in mind: pEC50 is minus log10 of a mol/L concentration; give just that figure.

Q. Recall the recorded pEC50 for CNC(=O)[C@@H](CC1CCN(C(=O)Cc2ccc3[nH]c(=O)cc(C)c3c2)CC1)NC(=O)c1ccc(-c2ccc(Cl)cc2)cn1 with MV4;11 cells and state it.
A. 7.24

Q. Recall the recorded pEC50 for CNC(=O)[C@@H](CC1CCN(C(=O)Cc2ccc3[nH]c(=O)cc(C)c3c2)CC1)NC(=O)c1ccc(-c2ccc(Cl)c(F)c2)cn1 with MV4;11 cells and state it.
A. 7.00

====

assayed_system: BRD4-BD2 (Homo sapiens, UniProt O60885)
Construct: two similar tandem bromodomains (BD1 and BD2); made in house; host or cells: bacteria (pET15b or pET28b vector)
experiment_summary: AlphaScreen competition assay with biotinylated JQ1
Type: binding
run_conditions: read-out: BRD4-BD2 IC50
// NB: equality with 20 µM counts as no; only IC50 strictly below is yes

Q. Quick check: does CNC(=O)C(CC1CCN(C(=O)Cc2ccc3[nH]c(=O)cc(C)c3c2)CC1)NC(=O)c1ccc(-c2ccc(C)cc2C)cn1 (centres unmarked) have IC50 under 20 µM?
A. no

Q. Quick check: does Cc1ccc(-c2ccc(C(=O)NCCC3CCN(C(=O)Cc4ccc5[nH]c(=O)cc(C)c5c4)CC3)nc2)c(C)c1 have IC50 under 20 µM?
A. yes

Q. Quick check: does Cc1cc(=O)[nH]c2ccc(CC(=O)N3CCC(CCNC(=O)c4ccccn4)CC3)cc12 have IC50 under 20 µM?
A. no

Q. Quick check: does CNC(=O)[C@@H](CC1CCN(C(=O)Cc2ccc3[nH]c(=O)cc(C)c3c2)CC1)NC(=O)c1ccc(-c2ccc(Cl)c(F)c2)cn1 have IC50 under 20 µM?
A. yes

====

assayed_system: BRD4-BD1 (Homo sapiens, UniProt O60885)
experiment_summary: AlphaScreen competition assay with biotinylated JQ1
Type: binding
Set-up: the bromodomain 1 (BD1) of BRD4; made in house; host or cells: bacteria (pET15b or pET28b vector)
run_conditions: AlphaScreen, biotinylated JQ1 10 nM, His-bromodomain 10 nM; read-out: BRD4-BD1 IC50
observable: IC50
The reply should read as a number followed by its unit.

Q. Recall the recorded IC50 for CNC(=O)C(CC1CCN(C(=O)Cc2ccc3[nH]c(=O)cc(C)c3c2)CC1)NC(=O)c1ccccn1 (stereo not drawn) [CDD-784] with BRD4-BD1 (Homo sapiens, UniProt O60885) and state it.
A. 15.7 nM

Q. Recall the recorded IC50 for Cc1cc(=O)[nH]c2ccc(CC(=O)N3CCC(CCNC(=O)c4cc5ccccc5cn4)CC3)cc12 [CDD-854] with BRD4-BD1 (Homo sapiens, UniProt O60885) and state it.
A. 119 nM

Q. Recall the recorded IC50 for Cc1ccc(-c2ccc(C(=O)NC(C)CC3CCN(C(=O)Cc4ccc5[nH]c(=O)cc(C)c5c4)CC3)nc2)c(C)c1 (stereo not drawn) [CDD-906] with BRD4-BD1 (Homo sapiens, UniProt O60885) and state it.
A. 52.4 nM

====

assayed_system: BRDT-BD1 (Homo sapiens, UniProt Q58F21)
experiment_summary: AlphaScreen competition assay with biotinylated JQ1
Type: binding
Set-up: the first bromodomain of BRDT (BRDT-BD1); made in house; host or cells: bacteria (pET15b or pET28b vector)
run_conditions: ratio of AlphaScreen IC50 values; NE = not efficient
observable: BRDT-BD1 vs. BRDT-BD2 fold (BRDT-BD1 selectivity)

Q. Recall the recorded BRDT-BD1 vs. BRDT-BD2 fold (BRDT-BD1 selectivity) for CNC(=O)[C@@H](CC1CCN(C(=O)Cc2ccc3[nH]c(=O)cc(C)c3c2)CC1)NC(=O)c1ccc(-c2ccc(Cl)cc2)cn1 with BRDT-BD1 (Homo sapiens, UniProt Q58F21) and state it.
A. 6,633 fold

Q. Recall the recorded BRDT-BD1 vs. BRDT-BD2 fold (BRDT-BD1 selectivity) for CNC(=O)[C@@H](CC1CCN(C(=O)Cc2ccc3[nH]c(=O)cc(C)c3c2)CC1)NC(=O)c1ccc(-c2ccc(Cl)c(F)c2)cn1 with BRDT-BD1 (Homo sapiens, UniProt Q58F21) and state it.
A. 4,799 fold

Q. Recall the recorded BRDT-BD1 vs. BRDT-BD2 fold (BRDT-BD1 selectivity) for CNC(=O)C(CC1CCN(C(=O)Cc2ccc3[nH]c(=O)ccc3c2)CC1)NC(=O)c1ccc(-c2ccccc2)cn1 (stereo not drawn) with BRDT-BD1 (Homo sapiens, UniProt Q58F21) and state it.
A. 3,875 fold
